B1: mRNA-splicing (parent)
chain: AGUUGCUGCUGGGAGCUCCAGCACAGUGAAAUGGACAGAAGGGCAGAGCAA

# Variants of: B1
# test.method.notes: exon inclusion enrichment index; higher = more inclusion; WT1 exon 5 minigene, HEK293
Given measured exon inclusion enrichment index, output YES if it is greater than or equal to 0.5 and NO if not.

residue.codes: AGUUCGCGCCGGGAGCUCCAGCACAGUGAAAUGGACAGAAUCGCAGAGCAA [G5C C6G U7C U10C G41U G42C]
qualitative.label: YES

residue.codes: AGUUCACACAGGGAGCUCCAGCACAACGAAAUGGACAGAAGGGCAGAGCAA [G5C C6A U7C G8A U10A G26A U27C]
qualitative.label: YES

residue.codes: AGUUGCUGCCAGGAGCUCCAGCACAGUGAAAUGGACAGAAGGGCAGAGCAA [U10C G11A]
qualitative.label: YES

residue.codes: AGUUGACGAUUGGAGCUCCAGCACAGUGAAAUGGACAGAAGGGCAGAGCAA [C6A U7C C9A G11U]
qualitative.label: YES

residue.codes: AGUUACCGAUGGGAGCUCCAGCACAGUGAAAUGGACAGAAGGGCAGAGCAA [G5A U7C C9A]
qualitative.label: YES

State whether the measured exon inclusion enrichment index reaches 0.5, counting equality as reaching it, for AGUUGACGACGGGAGCUCCAGCACAGUGAAAUGGGCAGAAGGGCAGAGCAA [C6A U7C C9A U10C A35G]
YES

State whether the measured exon inclusion enrichment index reaches 0.5, counting equality as reaching it, for AGUUGCUGCUGGGAGCUCCAGCACAGUGUUAUGGACAGAAGGGCAGAGCAA [A29U A30U]
NO

State whether the measured exon inclusion enrichment index reaches 0.5, counting equality as reaching it, for AGUUGACGACGGGAGCUCCAGCUCAGUGAAAUGGACAGAAGGGCAGAGCAA [C6A U7C C9A U10C A23U]
YES

Data origin, for the record: the RNAGym collection of RNA variant scans (doi:10.1101/gr.219683.116)
